The reported measurements were obtained from PubChem BioAssay (NCI).

- Tested on: SK-MEL-28 melanoma
- Assay Summary: NCI tumour cell line growth inhibition, 48 h
Reported Endpoint: log10 of TGI (log10 of the value in µM)
All values: log10 TGI [µM].

Lookup: Value lookup for log10 of TGI; key = CCN(CC)c1ccc(/C=C/C2=[N+](C)c3ccccc3C2(C)C)c(C)c1
Found: 0.44

Lookup: Moving on to the next compound: O=C1/C(=C/c2cccc([N+](=O)[O-])c2)Sc2scc(-c3ccc([N+](=O)[O-])cc3)[n+]21
Found: 1.79

Lookup: Similarly, CC(C)[Si](OC/C(=C/COC(C)(C)C)[C@H]1CC=C(C(=O)c2ccccc2N2CN(C)C(=O)N(C)C2)C1)(C(C)C)C(C)C ?
Found: 1.11

Lookup: Can you handle COC(=O)[C@H](Cc1ccccc1)NC(=O)N(CCC#N)CCN(C(=O)N[C@@H](Cc1ccccc1)C(=O)OC)c1ccccc1 next?
Found: 1.53

Lookup: Ok, now Fc1ccc2nc(-c3cc(-c4ccc5c(c4)OCO5)n[nH]3)[nH]c2c1
Found: 1.73

Lookup: Then what about the compound C=CC1=C(C)C2=NC1=CC1=NC(=CC3=C(C)C4=C(O)[C@H](C(=O)OC)C(=C5NC(=C2)[C@@H](C)[C@@H]5CCC(=O)O)C4=N3)C(CC)=C1C ?
Found: 0.55

Lookup: One more compound: Cc1c(C(=O)/C=C/c2ccccc2[N+](=O)[O-])[n+](=O)c2ccccc2n1[O-]
Found: 1.41

---

- System: SF-539 CNS
- Assay Summary: NCI tumour cell line growth inhibition, 48 h
Assign TGI to each entry below.
Kindly answer with a numeric value in µM, unit omitted.

Lookup: Entry CC(C)=CCC[C@@H](C)C1=C(O)C(N)=C(C)C(=O)C1=O : reported TGI = ?
Found: 89.5

Lookup: Entry to check: C[n+]1c(/C=C/c2ccc(O)c3ncccc23)[se]c2ccccc21
Found: 21.3

Lookup: O=C1c2ccccc2-c2c1c1c(NCCCO)nc3ccccc3c1n2Cc1ccccc1 , same question.
Found: 36.7

Lookup: Try this molecule next: C[C@]12C/C(=C/O)C(=O)C(O)=C1CC[C@@H]1C2CC[C@@]2(C)C1CC[C@@H]2O (stereo not given in full)
Found: 34.2

---

- Test system: HT29 colon
- Assay Summary: NCI tumour cell line growth inhibition, 48 h; in the data active = GI50 below about 0.43 µM; inactive = the rest
Result category, one only: 1 (yes) = active, 0 (no) = inactive

Lookup: Identify the outcome logged in this assay for the molecule shown: CCCCCCCCCCCCCC[n+]1cccc(C(N)=O)c1
Found: 0 (no)

Lookup: Please answer likewise for CCNCCNc1cc(-c2ccc(C#N)cc2)c(C#N)c2nc3ccccc3n12
Found: 0 (no)

Lookup: Also need O=C(/C=C/c1cccc(O)c1)c1cccc(-n2cc(-c3ccc4ccccc4c3)[nH]c2=O)c1 , thanks.
Found: 0 (no)

Lookup: What would you report for COc1ccc(-n2nc(C)c3c(Nc4ccc(NC(=O)Nc5ccc(Cl)c(C(F)(F)F)c5)cc4)ncnc32)cc1 ?
Found: 0 (no)

Lookup: Now the same for CC(=O)Oc1c(C)c(C)c2c(c1C)CCC(C)(CC(=O)OCCCCCCCCCCC[P+](c1ccccc1)(c1ccccc1)c1ccccc1)O2 (stereo not given)
Found: 0 (no)

Lookup: Also need CC1c2ccccc2N=C2SC(=S)N3CCN=C3N21 (stereo not given) , thanks.
Found: 0 (no)

Lookup: Consider next the molecule O=C(c1cccs1)C1NO[N+]([O-])=C1c1cccs1 (stereo not given) in the same way.
Found: 0 (no)

Lookup: Try Nc1cc(-c2ccc(Cl)cc2)nn1-c1nnc(/C=C/c2ccco2)c(=O)[nH]1 next.
Found: 0 (no)

Lookup: Can you handle CCN(CC)c1ccc(/C=C/C2=[N+](C)c3ccccc3C2(C)C)c(C)c1 next?
Found: 1 (yes)

Lookup: Consider next the molecule Cc1cc2c(cc1Cl)S/C(=C/C(=O)O)C(Nc1cccc3nsnc13)=NS2(=O)=O in the same way.
Found: 0 (no)

---

Could you please report measured TGI for the items listed next?
- Tested on: COLO 205 colon
- Assay Summary: NCI tumour cell line growth inhibition, 48 h

Lookup: API: value(readout=TGI, system=COLO 205 colon) for record c1ccc(-c2nc(N3CCCNCC3)c3nc(-c4ccccc4)oc3n2)cc1
Found: 3.38 µM

Lookup: Another: CC(C)[O-].CC(C)[O-].CN(CCN(C)Cc1cc(F)cc(F)c1[O-])Cc1cc(F)cc(F)c1[O-].[Ti+4]
Found: 4.86 µM

Lookup: Try this compound too: CSc1nc2c(ncn2C2OC(CO)C(O)C(O)C2O)c(=O)[nH]1 (centres undefined)
Found: > 100 µM

Lookup: Can you handle COP(=O)(OC)C(Nc1ccc(Cc2ccc(NC(c3ccco3)P(=O)(OC)OC)cc2)cc1)c1ccco1 (centres undefined) next?
Found: > 100 µM

Lookup: Also O=C1C(C(O)(C(F)(F)F)C(F)(F)F)CCC1C(O)(C(F)(F)F)C(F)(F)F (centres undefined) ?
Found: 1.86 µM

Lookup: Continue with Fc1ccc2nc(-c3cc(-c4ccc5c(c4)OCO5)n[nH]3)[nH]c2c1
Found: > 66.1 µM

Lookup: Same thing, different compound: C/C1=C\CC[C@@](C)(O)[C@@H]2C[C@H](CC/C(C)=C/CC1)C1(CC1)C(=O)O2
Found: 36.4 µM

Lookup: Repeat with N#C/C(=C1\SC(N=Nc2ccc(Cl)cc2)C(=O)N1c1ccccc1)c1nc2ccccc2[nH]1 (centres undefined)
Found: > 100 µM

Lookup: Now the same for O=C(/C=C/c1ccc2c(c1)OCO2)Cc1nc2ccccc2[nH]c1=O
Found: > 100 µM

---

For each entry below, report its TGI value.
- System: NCI-H23 lung
- Assay Summary: NCI tumour cell line growth inhibition, 48 h
Use µM as the unit, but write only the number.

Lookup: Item: COc1ccc(-n2nc(C)c3c(Nc4ccc(NC(=O)Nc5ccc(Cl)c(C(F)(F)F)c5)cc4)ncnc32)cc1 Test system: NCI-H23 lung Read-out: TGI Value: ?
Found: 3.95

Lookup: Same question, COc1cc(C2c3cc4c(cc3[C@@H](Nc3ccc5c(c3)OCO5)C3COC(=O)[C@H]23)OCO4)cc(OC)c1O (stereo not given in full) this time
Found: 4.07

Lookup: // same read-out, input: CC(=O)n1nc(-c2ccccc2)n(/N=C/c2ccc([N+](=O)[O-])o2)c1=O
Found: 14.3

Lookup: Please give the result for CC(C)C1=C(O)C2=C(C(=O)C1=O)C1(C)CCCC(C)(C)C1C(O)C2OC=O (stereo not given) too.
Found: 20.5

Lookup: // next record CCNCCNc1cc(-c2ccc(C#N)cc2)c(C#N)c2nc3ccccc3n12
Found: 21.3

Lookup: Same read-out for CCCCCCCCCCCC1CC(=O)NCCCN(C)CCCCN(C)CCCN1C (stereo not given) ?
Found: 3.12

Lookup: Then this compound: CC(C)N1CN(c2ccccc2)C2(CCN(CCCC(=O)c3ccc(F)cc3)CC2)C1=O
Found: 28.1

---

- System: HCT-15 colon
- Assay Summary: NCI tumour cell line growth inhibition, 48 h
Reported Endpoint: GI50

Lookup: Report GI50 for O=C1c2ccccc2-c2c1c1c(NCCCO)nc3ccccc3c1n2Cc1ccccc1 please.
Found: 37500 nM

Lookup: Another compound to look at: c1cnn2ncc(-c3ccnc(Nc4ccc5c(c4)OCCO5)n3)c2c1
Found: 86.3 nM

Lookup: And for COc1ccc(C(=O)c2nc3ccccc3n2CC(=O)c2ccc(Cl)cc2)cc1 ?
Found: 2000 nM

Lookup: What would you report for CCn1c(-c2nonc2N)nc2ccncc21 ?
Found: > 25000 nM

Lookup: Lookup CSc1ccc(N(C)c2nc(C)nc3c2CCC3)cc1
Found: < 10 nM

Lookup: Next compound up: COc1ccc(C2=C(N3CCc4ccccc43)C(=O)NC2=O)cc1
Found: > 25000 nM

Lookup: Consider next the compound OCc1ccc(N2CCOCC2)cc1Cl in the same way.
Found: > 100000 nM

Lookup: // next record CCNCCNc1cc(-c2ccc(C#N)cc2)c(C#N)c2nc3ccccc3n12
Found: 2810 nM

Lookup: How about CC(C)Oc1ccc(C(=O)Cn2ccnc2)cc1-n1c(CN2CCN(C(=O)COc3ccc(Cl)cc3)CC2)nc2ccccc2c1=O ?
Found: 12300 nM

Lookup: Next: [2H]c1nc(=Nc2cc(NC(=O)C=C)c(N(C)CCN(C)C)cc2OC)[nH]c(-c2cn(C([2H])([2H])[2H])c3ccccc23)c1[2H]
Found: 1440 nM

Lookup: Consider next the compound O=[N+]([O-])c1ccc(-c2cc3c(Nc4ccc(Cl)c(C(F)(F)F)c4)ncnc3s2)cc1 in the same way.
Found: 1010 nM

Lookup: What about CC(=O)[CH-]C(=O)c1ccccc1.CC(=O)[CH-]C(=O)c1ccccc1.CC1(C)OCC(C2OC3OC(C)(C)OC3C2[O-])O1.CC[O-].[Ti+4] (configuration not stated) ?
Found: 25900 nM
